system_name: KRAS(G12C) (Homo sapiens, UniProt P01116, G12C)
Sequence (P01116 1-188 isoform P01116-2 G12C): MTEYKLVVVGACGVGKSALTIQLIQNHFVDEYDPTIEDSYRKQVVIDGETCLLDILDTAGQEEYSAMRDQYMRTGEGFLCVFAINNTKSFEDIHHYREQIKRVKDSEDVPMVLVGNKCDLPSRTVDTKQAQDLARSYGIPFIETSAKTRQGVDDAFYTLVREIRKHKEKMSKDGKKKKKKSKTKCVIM
test_details: KRAS(G12C)/SOS1 homogeneous time-resolved fluorescence (HTRF) assay
assay_setup: absence of GTP, 4° C. for 3 hr, read-out: KRAS (G12C) binding
pIC50: −log10 of the molar value.
measured_attribute: pIC50

[
  {
    "compound": "C=CC(=O)N1CCN(c2nc(OCCN3CCC(N4CCN(C(=O)C5CCN(Cc6ccc(-n7c(C(N)=O)nnc7-c7cc(C(C)C)c(O)cc7O)cc6)CC5)CC4)CC3)nc3c2CCN(c2cccc4cccc(Cl)c24)C3)C[C@@H]1CC#N [Compound 249]",
    "pIC50": "> 7.00"
  }
]

Exercise: Request the reported pIC50 associated with C=CC(=O)N1CCN(c2nc(OC[C@@H]3C[C@H](C(=O)N[C@@H]4CCCN(Cc5ccc(-n6c(O)nnc6-c6cc(C(C)C)c(O)cc6O)cc5)C4)CN3C)nc3c2CCN(c2cccc4cccc(Cl)c24)C3)C[C@@H]1CC#N [Compound 229]
Solution: > 7.00

Exercise: Request the reported pIC50 associated with C=CC(=O)N1CCN(c2nc(OCC3CN(Cc4ccc(-n5c(O)nnc5-c5cc(C(C)C)c(O)cc5O)cc4)C3)nc3c2CCN(c2cccc4cccc(Cl)c24)C3)C[C@@H]1CC#N [Compound 231]
Solution: 6.00 to 7.00

Exercise: Request the reported pIC50 associated with C=CC(=O)N1CCN(c2nc(OC[C@@H]3C[C@H](NC(=O)C4CCN(C(=O)C5CCN(Cc6ccc(-n7c(O)nnc7-c7cc(C)c(O)cc7O)cc6)CC5)CC4)CN3C)nc3c2CCN(c2cccc4cccc(Cl)c24)C3)C[C@@H]1CC#N [Compound 312]
Solution: > 7.00
